Sourced from the supplement of paper PMC10567573

B1: DCAF4 (parent)
chain: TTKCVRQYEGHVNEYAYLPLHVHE

# Variants of: B1
# assay-comment: protein stability index of a GFP-peptide fusion (GPS, HEK-293T) (PSI 1-6); higher = more stable;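 note: lentivirally expressed fusions sorted by FACS into six bins by GFP to DsRed ratio, PSI derived from sequencing read proportions per bin multiplied by bin number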
# measurement-context: c terminus: a fixed tail appended
Give measured protein stability index for each item. Keep answers brief.
Give bare numbers.

Example entries begin here.
>>> print(df.to_string())
   variant_designation  result
0                  C4M    3.45
1                  T1W    1.92
2                 L18K    2.76

Take each entry in turn and give its protein stability index.
1. H11L
2. V5G
3. G10F

Output:
1: 1.95; 2: 2.31; 3: 1.66

Value sought for every listed variant: protein stability index.
1. A16P
2. E14S
3. Q7F
4. Y15Q
5. G10W

Output:
3.02
2.05
1.87
3.32
1.65
